Source of measurements: ChEMBL document CHEMBL4819151

IC50 values for the compounds below.
Measurement target: 1,4-dihydroxy-2-naphthoate octaprenyltransferase (Mycobacterium tuberculosis, UniProt P9WIP3)
Sequence (P9WIP3 whole entry): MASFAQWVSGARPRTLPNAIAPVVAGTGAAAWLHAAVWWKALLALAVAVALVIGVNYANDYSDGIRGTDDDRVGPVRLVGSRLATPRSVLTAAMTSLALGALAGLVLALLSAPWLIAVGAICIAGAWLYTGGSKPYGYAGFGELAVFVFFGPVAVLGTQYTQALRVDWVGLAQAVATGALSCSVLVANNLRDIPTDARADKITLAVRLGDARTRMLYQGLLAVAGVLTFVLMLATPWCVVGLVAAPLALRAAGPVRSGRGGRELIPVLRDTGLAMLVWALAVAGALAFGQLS
Method description: Inhibition of Mycobacterium tuberculosis MenA
Express it in µM; write the number only.

COc1ccc2ccc(OCCCCCCCCN3CCCCC3)cc2c1 : 13.5

Consider the record given below.
Query string: Requested read-out: IC50. Entry: C=CCN(C)CCCCCCCCOc1ccc2ccc(OC)cc2c1
Result string: 16.9

---

Tested on: Staphylococcus aureus
Method description: Antibacterial activity against methicillin-resistant Staphylococcus aureus USA300 assessed as bacterial growth inhibition measured by two-fold serial microdilution method
Format: functional
Parameter: MIC

// known answers, use as guide
COc1ccc2ccc(OCCCOCC=C(C)C)cc2c1 : > 256 µg/mL
COc1ccc2ccc(OCCCCCCCCOCC=C(C)C)cc2c1 : > 256 µg/mL

Query string: # get_value(readout='MIC', item= CC(C)=CCC/C(C)=C/CNC1CC1 )
Result string: > 128 µg/mL
